# Tested Target: T1, 4H3162-AA
# T1 chain: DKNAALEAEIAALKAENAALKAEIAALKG
# Assay Protocol: two-hybrid library CCmax;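 also: natural log of median RNA to DNA barcode read ratio; higher means stronger binding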
# Stated Conditions: mean of both orientations
Readout Type: interaction score

Known results for binders:
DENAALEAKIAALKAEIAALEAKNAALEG [4H1351-AA]	-1.42
DKIAALEAENAALEAENAALEAKIAALKG [4H2198-AA]	-1.38
DKIAALKAEIAALKAENAALEAKNAALKG [4H2648-AA]	-1.38
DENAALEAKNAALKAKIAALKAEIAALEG [4H1513-AA]	-1.99
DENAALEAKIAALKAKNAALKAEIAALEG [4H1401-AA]	-0.375
DKIAALKAEIAALEAKNAALEAENAALEG [4H2611-AA]	-1.57
DKIAALKAKIAALKAENAALKAENAALEG [4H2907-AA]	-1.39
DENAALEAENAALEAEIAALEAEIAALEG [4H1153-AA]	-1.68
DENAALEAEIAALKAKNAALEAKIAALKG [4H1142-AA]	-1.46
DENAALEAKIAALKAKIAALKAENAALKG [4H1388-AA]	-1.45

[I] DKIAALKAKNAALKAKIAALKAKNAALKG [4H3056-AA]
[II] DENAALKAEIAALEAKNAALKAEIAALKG [4H1594-AA]
[III] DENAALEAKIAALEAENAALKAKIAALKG [4H1310-AA]
Input: I would appreciate it if you could sort these 3 binders by interaction score, starting from the smallest number. Sort the labels as requested; that list is your answer.
Output: I, III, II
